Test: NCI Yeast Anticancer Drug Screen. Data for the bub3 strain (AID 167)
Conditions: S. cerevisiae bub3 mutant strain, at 50.0 µM, hits give high values
This is part of a sample that, as a whole, favours compounds with a hit. Of some 79,000 tested, about 15% had one in any assay. Where a SMILES comes first, the peptide text is derived from it. The star is where a group is joined. Trt = c1ccc(C(c2ccccc2)(c2ccccc2)*)cc1; Cbz = O=C(OCc1ccccc1)*; Bz = O=C(c1ccccc1)*
Recorded Endpoint: growth inhibition (%)
Give a bare numeral; the unit % is implied.

Enquiry: Name the reported growth inhibition value associated with the compound "CC(=O)ON(C(C)=O)c1ccc(C(N)=O)cc1"
Return: -15.3

Enquiry: Name the reported growth inhibition value associated with the compound "C=CCn1c(SC)nc2c(c1=O)CCCC2"
Return: 7.55

Enquiry: Name the reported growth inhibition value associated with the compound "Cc1nc2c(c(=O)[nH]1)S/C(=C(/C#N)c1nc3ccccc3[nH]1)N2c1ccccc1"
Return: -40.8

Enquiry: Name the reported growth inhibition value associated with the compound "CCC(CC)C(=O)OCCOc1ccccc1"
Return: 19.4

Enquiry: Name the reported growth inhibition value associated with the compound OCC(O)C(O)C(O)C(O)CN=Cc1ccccc1O (stereo unspecified)
Return: -19.6

Enquiry: Name the reported growth inhibition value associated with the compound "Cc1ccc2nccnc2c1"
Return: 10.9

Enquiry: Name the reported growth inhibition value associated with the compound O=C(Nc1ccc(Cl)c(Cl)c1)OC1C=CS(=O)(=O)C1 (stereo unspecified)
Return: 3.5

Enquiry: Name the reported growth inhibition value associated with the compound "Cc1ccc(O)c2occ(C)c12"
Return: -2.8

Enquiry: Name the reported growth inhibition value associated with the compound "Nc1ccc(C(=O)O)cc1Cl"
Return: -6.3

Enquiry: Name the reported growth inhibition value associated with the compound CC(O)COC(C)c1ccccc1 (stereo unspecified)
Return: -6.45

Enquiry: Name the reported growth inhibition value associated with the compound "C=CCOC(=O)Nc1ccc(C)c(NC(=O)OCC=C)c1"
Return: -12.6

Enquiry: Name the reported growth inhibition value associated with the compound "C[N+](C)([O-])Cc1ccccc1"
Return: -5.2

Enquiry: Name the reported growth inhibition value associated with the compound "CCCCCCCCCCCCOc1ccc(F)cc1C"
Return: 10.7

Enquiry: Name the reported growth inhibition value associated with the compound "Cc1ccc(NC(=O)CC#N)c(C)c1"
Return: -0.7

Enquiry: Name the reported growth inhibition value associated with the compound COc1ccc(/C=C2/CSCC3=C2NC(=S)NC3c2ccc(OC)c(OC)c2OC)c(OC)c1OC (stereo unspecified)
Return: 48.4

Enquiry: Name the reported growth inhibition value associated with the compound c1ccc2c(c1)CCC/C2=N\OCC1CO1 (stereo unspecified)
Return: -33.1

Enquiry: Name the reported growth inhibition value associated with the compound CC1=NN(C(=O)Nc2ccccc2)C(=O)C2CCC(=O)N12 (stereo unspecified)
Return: -1

Enquiry: Name the reported growth inhibition value associated with the compound "CC(=O)O[C@H]1CC[C@@]2(C)[C@@H](CC[C@@H]3[C@@H]2CC(=O)[C@@]2(C)[C@H]3C[C@@H]3CC(C)=CC(=O)[C@@H]32)C1"
Return: -34.9

Enquiry: Name the reported growth inhibition value associated with the compound CC(Br)CCc1ccccc1Br (stereo unspecified)
Return: 19.9

Enquiry: Name the reported growth inhibition value associated with the compound "COc1ccccc1C(O)(c1ccccc1OC)C1(O)CCN(C)CC1"
Return: -5.3

Enquiry: Name the reported growth inhibition value associated with the compound "C/C(=C/c1ccccc1)C(F)F"
Return: -11.6

Enquiry: Name the reported growth inhibition value associated with the compound "COc1ccc(C2CC(=O)N(CC(=O)O)C(=O)C2)cc1"
Return: -9.4

Enquiry: Name the reported growth inhibition value associated with the compound CC1=CC2CC(C)C1(C)CCc1ccoc12 (stereo unspecified)
Return: 9.85

Enquiry: Name the reported growth inhibition value associated with the compound CC1(CCN2CCCC2)NC(=O)NC1=O (stereo unspecified)
Return: 3.4

Enquiry: Name the reported growth inhibition value associated with the compound "Cc1c(C(=O)NNc2ccccc2)n2c(=S)[nH]nc2c2ccccc12"
Return: -14.8

Enquiry: Name the reported growth inhibition value associated with the compound "O=C(CCCCCCCCC(=O)c1ccc2ccccc2c1O)c1ccc2ccccc2c1O"
Return: -10.4

Enquiry: Name the reported growth inhibition value associated with the compound COC(=O)C1OC(O[C@H]2CC[C@]3(C)[C@H]4CC=C5[C@@H]6CC(C)(C)CC[C@]6(C(=O)OC6OCC(O)C(O)C6OC6OC(C)C(OC7OCC(O)C(O)C7O)C(OC7OCC(O)(CO)C7O)C6O)[C@H](O)C[C@@]5(C)[C@]4(C)CC[C@H]3C2(C)C)C(O)C(O)C1O (stereo partly specified)
Return: 13.6

Enquiry: Name the reported growth inhibition value associated with the compound "O=C(O)[C@@H]1CCC(=O)N1C(c1ccc2c(c1)OCO2)c1ccc2c(c1)OCO2"
Return: -15.1

Enquiry: Name the reported growth inhibition value associated with the compound CC(C)CC1CC(=O)NC1C(=O)O (stereo unspecified)
Return: -0.85

Enquiry: Name the reported growth inhibition value associated with the compound O=C(C1OC1c1cccc([N+](=O)[O-])c1)C12CC3CC(CC(C3)C1)C2 (stereo unspecified)
Return: 53

Enquiry: Name the reported growth inhibition value associated with the compound CCC(CC(C)C)C(=O)OCCBr (stereo unspecified)
Return: 45.5

Enquiry: Name the reported growth inhibition value associated with the compound "NC(=O)COc1ccc(Br)cc1Br"
Return: -6.3

Enquiry: Name the reported growth inhibition value associated with the compound Cc1ccc(S(=O)(=O)C(Cl)(SCl)Sc2ccccc2)cc1 (stereo unspecified)
Return: 46.4

Enquiry: Name the reported growth inhibition value associated with the compound CCOC(=O)C1CN2C(=O)CCC2C1=O (stereo unspecified)
Return: 15.4

Enquiry: Name the reported growth inhibition value associated with the compound "Cc1cc(C=O)c(C)[nH]1"
Return: 1.55

Enquiry: Name the reported growth inhibition value associated with the compound Nc1nc(N)c2nc(CNc3ccc(C(=O)NC(CCCNC(=O)c4ccccc4C(=O)O)C(=O)O)cc3)cnc2n1 (stereo unspecified)
Return: -37.9

Enquiry: Name the reported growth inhibition value associated with the compound "O=C1c2ccccc2C(=O)c2c(Cl)ccc(O)c21"
Return: 30.4

Enquiry: Name the reported growth inhibition value associated with the compound COc1cc(O)c2c(c1)C(=O)C1=C(C2=O)[C@@H](C)OC(C)C1 (stereo partly specified)
Return: 12.8

Enquiry: Name the reported growth inhibition value associated with the compound COC(OC)C1(c2ccccc2)NC(=O)N(Cc2ccccc2)C1=O (stereo unspecified)
Return: 2.85

Enquiry: Name the reported growth inhibition value associated with the compound "CCOC(=O)c1cnc(NCCCNc2ncc(C(=O)OCC)c(=O)[nH]2)[nH]c1=O"
Return: 3.8

Enquiry: Name the reported growth inhibition value associated with the compound O=C(Nc1ccc(Cl)c(Cl)c1)C1C(=O)N(c2ccc(Cl)c(Cl)c2)C(=O)/C1=N\O (stereo unspecified)
Return: -3.3

Enquiry: Name the reported growth inhibition value associated with the compound "Cc1cc(=O)n(NC(N)=O)c(C)c1C(=O)O"
Return: -1.3

Enquiry: Name the reported growth inhibition value associated with the compound "NCCOc1ccccn1"
Return: 1

Enquiry: Name the reported growth inhibition value associated with the compound "CC(C)CNC(=O)O"
Return: -10.8

Enquiry: Name the reported growth inhibition value associated with the compound O=C(OCC1OC(c2ccccc2)OC2C(COC(=O)c3ccccc3)OC(c3ccccc3)OC12)c1ccccc1 (stereo unspecified)
Return: 12.4

Enquiry: Name the reported growth inhibition value associated with the compound COC(=O)C(CSC(=O)c1ccccc1)NC(=O)CNC(=O)CNC(=O)C(CCCCNC(=O)OCc1ccccc1)NC(=O)CNC(=O)C(CSC(c1ccccc1)(c1ccccc1)c1ccccc1)NC(=O)OCc1ccccc1 (stereo unspecified) (Cbz-C(Trt)GK(Cbz)GGC(Bz)-OMe; configuration not given here)
Return: -53.1

The reported measurements were obtained from PubChem BioAssay (NCI).
